The origin of these recorded values is ChEMBL document CHEMBL1158365.

Tested on: Ipomoea purpurea
assay_method_text: Herbicidal activity against Ipomoea purpurea
Format: functional
measured_attribute: ED85
Don't forget the unit after the value.

Cn1c(C(F)(F)F)cc(=O)n(-c2cc3c(ccc(=O)n3CC#N)cc2F)c1=O    30 g/ha
CCn1c(=O)ccc2cc(F)c(-n3c(=O)cc(C(F)(F)F)n(C)c3=O)cc21    10 g/ha
Cn1c(C(F)(F)F)cc(=O)n(-c2cc3[nH]c(=O)ccc3cc2F)c1=O    30 g/ha

# ED85 of `CCCn1c(=O)ccc2cc(F)c(-n3c(=O)cc(C(F)(F)F)n(C)c3=O)cc21` = 30 g/ha

# ED85 of `C#CCn1c(=O)ccc2cc(F)c(-n3c(=O)cc(C(F)(F)F)n(C)c3=O)cc21` = 3 g/ha

---

Tested on: Abutilon theophrasti
assay_method_text: Herbicidal activity against Abutilon theophrasti
Format: functional
measured_attribute: ED85 (g/ha)
# number only, unit g/ha dropped from output

C#CCn1c(=O)ccc2cc(F)c(-n3c(=O)cc(C(F)(F)F)n(C)c3=O)cc21    1
Cn1c(C(F)(F)F)cc(=O)n(-c2cc3c(ccc(=O)n3CC#N)cc2F)c1=O    10
Cn1c(C(F)(F)F)cc(=O)n(-c2cc3[nH]c(=O)ccc3cc2F)c1=O    30
COC(=O)Cn1c(=O)ccc2cc(F)c(-n3c(=O)cc(C(F)(F)F)n(C)c3=O)cc21    10
CCn1c(=O)ccc2cc(F)c(-n3c(=O)cc(C(F)(F)F)n(C)c3=O)cc21    3
C=CCn1c(=O)ccc2cc(F)c(-n3c(=O)cc(C(F)(F)F)n(C)c3=O)cc21    1
CCCn1c(=O)ccc2cc(F)c(-n3c(=O)cc(C(F)(F)F)n(C)c3=O)cc21    10
Cn1c(C(F)(F)F)cc(=O)n(-c2cc3c(ccc(=O)n3C)cc2F)c1=O    10

Now look at this entry.
# ED85 of `CC(C)Cn1c(=O)ccc2cc(F)c(-n3c(=O)cc(C(F)(F)F)n(C)c3=O)cc21` = 10

---

Test system: Ipomoea purpurea
assay_method_text: Herbicidal activity against Ipomoea purpurea
Assay type: functional
measured_attribute: ED85 (g/ha)
# number only, unit g/ha dropped from output

CC(C)Cn1c(=O)ccc2cc(F)c(-n3c(=O)cc(C(F)(F)F)n(C)c3=O)cc21    30
C=CCn1c(=O)ccc2cc(F)c(-n3c(=O)cc(C(F)(F)F)n(C)c3=O)cc21    3
COC(=O)Cn1c(=O)ccc2cc(F)c(-n3c(=O)cc(C(F)(F)F)n(C)c3=O)cc21    100

Now look at this entry.
# ED85 of `Cn1c(C(F)(F)F)cc(=O)n(-c2cc3c(ccc(=O)n3C)cc2F)c1=O` = 10
